Source: patent US5635495A

- System: mBSA-induced DTH granuloma (DTH GRA) lesion
- protocol-text: Delayed Type Hypersensitivity Granuloma Assay (DTH GRA) model for inflammation
- Type: in vivo, mouse
- test-conditions: 10 mg/kg PO; granuloma wet weight; excised after nine days
// boundary case: % Inhibition Wet Weight equal to 40% maps to not satisfied; strictly smaller maps to satisfied

1. Cc1cc(Oc2ccc(Br)cc2Br)nc(NCC(P2(=O)OCC(C)(C)CO2)P2(=O)OCC(C)(C)CO2)n1 :: satisfied
2. Cc1cc(Oc2ccc(C#N)cc2)nc(NCC(P2(=O)OCC(C)(C)CO2)P2(=O)OCC(C)(C)CO2)n1 [Ex. 20 (e)] :: satisfied
3. Cc1cc(N2CCOCC2)nc(NCC(P2(=O)OCC(C)(C)CO2)P2(=O)OCC(C)(C)CO2)n1 :: not satisfied
4. COc1cc(C)nc(NCC(P2(=O)OCC(C)(C)CO2)P2(=O)OCC(C)(C)CO2)n1 :: not satisfied
5. Cc1cc(Oc2ccc(F)cc2F)nc(NCC(P2(=O)OCC(C)(C)CO2)P2(=O)OCC(C)(C)CO2)n1 :: not satisfied
6. Cc1cc(Oc2c(F)cccc2[N+](=O)[O-])nc(NCC(P2(=O)OCC(C)(C)CO2)P2(=O)OCC(C)(C)CO2)n1 :: not satisfied
7. CCOP(=O)(OCC)C(CNc1nc(C)cc(Oc2ccc(Cl)cc2Cl)n1)P(=O)(OCC)OCC :: not satisfied
